- Tested on: RSV (Long)
- ASSAY DETAILS: RSV cytopathic effect (CPE)-based viral replication assay in HEp-2 cells
- CONDITIONS USED: human respiratory syncytial virus, 72 h; HEp-2 cells infected with RSV Long at MOI 0.015, 3 days, cell viability by CellTiter-Glo; read-out: Ec50 (nM) Example A
READOUT KIND: EC50 (nM)

Example entries begin here.
Determine its reported EC50: O=c1n(Cc2nc(OCCCO)c3ccccc3n2)c2ccccc2n1C1CC1
1200

Answer with the recorded EC50 of O=c1n(Cc2nc(OCC3CCOC3)c3cc(Cl)ccc3n2)c2cnccc2n1C1CC1 (centres unmarked) only.
600

Consider the compound Cc1cc2n(Cc3nc(NC(C)c4cnn(C)c4)c4ccccc4n3)c(=O)c3ccccc3n2n1 (centres unmarked) and give its recorded EC50.
1400

Using known records, supply EC50 for O=c1n(Cc2nc(OCC3CCOC3)c3ccccc3n2)c2ncccc2n1C1CC1 (centres unmarked)
450

Give reported EC50 value for O=c1c2ccccc2n2nncc2n1Cc1nc(OC2CCOC2)c2ccccc2n1 (centres unmarked)
29

[1] O=c1n(Cc2nc(OCC3CCOC3)c3ccc(Cl)cc3n2)c2cnccc2n1C1CCOCC1 (centres unmarked)
[2] CN(Cc1cnn(C)c1)c1nc(Cn2c(=O)n(C3CC3)c3ccccc32)nc2ccccc12
// compare measured EC50 between 1 and 2 ; output the lower one # answer = label of selected item
1

###

- System: RSV (Long)
- ASSAY DETAILS: RSV cytopathic effect (CPE)-based viral replication assay in HEp-2 cells
- CONDITIONS USED: human respiratory syncytial virus, 72 h; HEp-2 cells infected with RSV Long at MOI 0.015, 3 days, cell viability by CellTiter-Glo; read-out: Ec50 (nM) Example A
READOUT KIND: EC50 (nM)

Report EC50 for Cn1cc(-c2ccc3c(OCC4CCOC4)nc(Cn4c(=O)n(C5CC5)c5ccncc54)nc3c2)cn1 (stereo not drawn)
6400

[A] O=C1CCCN1CCOc1nc(Cn2c(=O)n(C3CC3)c3ccncc32)nc2cc(Br)ccc12
[B] O=c1n(Cc2nc(OC3CCOC3)c3ccc(Cl)cc3n2)c2c[n+]([O-])ccc2n1C1CC1 (stereo not drawn)
Which record shows the lower EC50: the first, A , or the second, B ? The response must carry the label of the picked entry.
B

Origin of values: patent US9708332B2
